Target: GST-Rok (full length) (Bacillus subtilis subsp. subtilis str. …, UniProt O34857 1-191)
Sequence: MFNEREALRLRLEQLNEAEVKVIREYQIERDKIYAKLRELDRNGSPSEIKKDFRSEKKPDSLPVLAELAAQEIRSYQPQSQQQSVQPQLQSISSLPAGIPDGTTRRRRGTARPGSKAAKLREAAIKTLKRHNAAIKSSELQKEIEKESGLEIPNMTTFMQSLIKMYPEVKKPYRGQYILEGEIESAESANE
Assay: protein binding microarray; Rok is a gene silencer of Bacillus subtilis; high values mean tight binding
Conditions: protein: recombinant; tags: GST (pTH5325, pDEST15-Magic modified); dsDNA, one strand shown
In all, about 33,000 sequences were measured (“e-score”: median about -0.037, highest 2% from about 0.34 on). The sample as a whole holds a higher share of the highest values than the screen did.

Sequence content: CTTTCTTC
Unit symbol: E-score
binding signal: -0.0764
--
Sequence content: CTTTCTAC
Unit symbol: E-score
binding signal: 0.444
--
Sequence content: ATTTCTAC
Unit symbol: E-score
binding signal: 0.408
--
Sequence content: ATTTCTAG
Unit symbol: E-score
binding signal: 0.333
--
Sequence content: TAAATGTA
Unit symbol: E-score
binding signal: 0.411
--
Sequence content: GTGCTTTA
Unit symbol: E-score
binding signal: -0.00122
--
Sequence content: AGATTGGC
Unit symbol: E-score
binding signal: 0.136
--
Sequence content: CTTCCTTA
Unit symbol: E-score
binding signal: -0.172
--
Sequence content: AGCCCTAT
Unit symbol: E-score
binding signal: -0.0484
--
Sequence content: AGCATTAT
Unit symbol: E-score
binding signal: 0.255
--
Sequence content: CAAAGACC
Unit symbol: E-score
binding signal: -0.0604
--
Sequence content: ATACGTAA
Unit symbol: E-score
binding signal: 0.323
--
Sequence content: CTTTACGC
Unit symbol: E-score
binding signal: 0.177
--
Sequence content: ACCTTACT
Unit symbol: E-score
binding signal: 0.101
--
Sequence content: GCATTCCA
Unit symbol: E-score
binding signal: -0.149
--
Sequence content: CTTTCTAA
Unit symbol: E-score
binding signal: 0.162
--
Sequence content: AGACAACG
Unit symbol: E-score
binding signal: -0.0674
--
Sequence content: GAAATGTC
Unit symbol: E-score
binding signal: 0.126
--
Sequence content: AATATTCG
Unit symbol: E-score
binding signal: 0.255
--
Sequence content: TATAACGA
Unit symbol: E-score
binding signal: 0.245
